- EXPERIMENTAL_SYSTEM: UniProtKB P32238
- Sequence (whole entry): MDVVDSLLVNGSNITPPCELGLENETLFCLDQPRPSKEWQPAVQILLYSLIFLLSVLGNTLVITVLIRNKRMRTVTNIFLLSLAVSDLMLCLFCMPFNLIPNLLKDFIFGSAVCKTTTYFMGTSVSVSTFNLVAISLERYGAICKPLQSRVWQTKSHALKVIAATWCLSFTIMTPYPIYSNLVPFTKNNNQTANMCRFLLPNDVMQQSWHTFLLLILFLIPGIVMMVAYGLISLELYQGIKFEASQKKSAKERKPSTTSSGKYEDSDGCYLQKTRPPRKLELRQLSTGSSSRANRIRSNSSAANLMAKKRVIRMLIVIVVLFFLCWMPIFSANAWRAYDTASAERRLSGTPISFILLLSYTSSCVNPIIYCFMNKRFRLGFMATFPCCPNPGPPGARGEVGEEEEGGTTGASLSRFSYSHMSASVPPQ
- PROCEDURE_TEXT: Agonist activity against human CCK1 receptor assessed as receptor activation at 10000 nM
- Assay type: functional
PARAMETER: Activity (%)
Numbers only, in %.

Hi team, please reply with Activity for each item in this list.
1. CCOc1cccc(-n2cc(C(=O)N3CCN(c4ccc5ccccc5c4)CC3)nc2-c2ccccc2)c1
2. Cc1ccc(-c2nc(C(=O)N3CCN(c4ccc5ccccc5c4)CC3)cn2-c2cccc(OC(C)C)c2)cc1
3. CCOc1cccc(-n2cc(C(=O)N3CCN(c4ccc5ccccc5c4)CC3)nc2-c2c(F)cccc2F)c1
4. COc1cccc(-c2cc(C(=O)N3CCN(c4cccc(Cl)c4)CC3)nn2-c2ccc(C)cc2)c1

1: 100; 2: 94; 3: 109; 4: 82

Hi team, please reply with Activity for each item in this list.
1. CCOc1cccc(-n2cc(C(=O)N3CCN(c4ccc5ccccc5c4)CC3)nc2-c2ccc(C)cc2F)c1
2. CCOc1cccc(-n2cc(C(=O)N3CCN(c4cnc5ccccc5c4)CC3)nc2-c2ccc(C)cc2F)c1
3. COc1cccc(-n2cc(C(=O)N3CCN(c4ccc(Cl)c(Cl)c4)CC3)nc2-c2ccc(C)cc2)c1
4. O=C(O)c1cc(N2CCN(C(=O)c3cn(-c4ccc5c(c4)OCCO5)c(-c4ccc(F)cc4)n3)CC2)cc2ccccc12

116
86
99
97

====

- EXPERIMENTAL_SYSTEM: Cholecystokinin receptor type A (Homo sapiens)
- PROCEDURE_TEXT: Agonist activity against human CCK1 receptor assessed as receptor activation at 10000 nM
- Assay type: functional
I'd be grateful if you could share measured Activity for these entries.
One number for each entry, in %.

Hi team, please reply with Activity for each item in this list.
1. Cc1ccc(-c2nc(C(=O)N3CCN(c4cc(C(=O)O)c5ccccc5c4)CC3)cn2-c2ccc3c(c2)OCCO3)cc1
2. CCCOc1cccc(-n2cc(C(=O)N3CCN(c4ccc5ccccc5c4)CC3)nc2-c2ccc(C)cc2)c1
3. CCOc1cccc(-n2cc(C(=O)N3CCN(c4cnc5ccccc5c4)CC3)nc2-c2ccccc2F)c1
4. COc1cccc(-n2cc(C(=O)N3CCN(c4ccc5cnccc5c4)CC3)nc2-c2ccc(C)cc2)c1
5. COc1ccc(-n2cc(C(=O)N3CCN(c4ccc5ccccc5c4)CC3)nc2-c2ccc(C)cc2)cc1
6. COc1cccc(-n2cc(C(=O)N3CCN(c4ccc5ccccc5n4)CC3)nc2-c2ccc(C)cc2)c1

[107, 89, 89, 86, 110, 89]

Hi team, please reply with Activity for each item in this list.
1. O=C(c1cn(-c2ccc3c(c2)OCCO3)c(-c2ccc(F)cc2)n1)N1CCN(c2cnc3ccccc3c2)CC1
2. COc1cccc(-n2cc(C(=O)N3CCN(c4ccc5ncccc5c4)CC3)nc2-c2ccc(C)cc2)c1
3. CCOc1cccc(-n2cc(C(=O)N3CCN(c4ccc5ccccc5c4)CC3)nc2-c2ccc(CC)cc2)c1
4. CCOc1cccc(-n2cc(C(=O)N3CCN(c4ccc5ccccc5c4)CC3)nc2-c2cccc(F)c2)c1
5. COc1cccc(-n2cc(C(=O)N3CCN(c4ccc5ccccc5c4)CC3)nc2-c2ccc(C)cc2)c1
6. CCOc1cccc(-n2cc(C(=O)N3CCN(c4cc(C(=O)O)c5ccccc5c4)CC3)nc2-c2ccc(F)cc2F)c1
7. Cc1ccc(-c2nc(C(=O)N3CCN(c4ccc5ccccc5c4)CC3)cn2-c2ccc3c(c2)OCCO3)cc1
8. CCOc1cccc(-n2cc(C(=O)N3CCN(c4ccc5ccccc5c4)CC3)nc2-c2ccc(F)cc2F)c1

1: 101; 2: 108; 3: 83; 4: 106; 5: 99; 6: 76; 7: 89; 8: 103

Hi team, please reply with Activity for each item in this list.
1. CCOc1cccc(-n2cc(C(=O)N3CCN(c4ccc5ccccc5c4)CC3)nc2-c2ccc(C)cc2)c1
2. COc1cccc(-n2cc(C(=O)N3CCN(c4cc5ccccc5cc4C(=O)O)CC3)nc2-c2ccc(C)cc2)c1
3. CCc1cccc(-n2cc(C(=O)N3CCN(c4ccc5ccccc5c4)CC3)nc2-c2ccc(C)cc2)c1

[93, 92, 101]
